Target: FXR (Homo sapiens)
Construct: using a full length FXR on a natural response element; expressed in transfected cells
Sequence (Q96RI1 1-486): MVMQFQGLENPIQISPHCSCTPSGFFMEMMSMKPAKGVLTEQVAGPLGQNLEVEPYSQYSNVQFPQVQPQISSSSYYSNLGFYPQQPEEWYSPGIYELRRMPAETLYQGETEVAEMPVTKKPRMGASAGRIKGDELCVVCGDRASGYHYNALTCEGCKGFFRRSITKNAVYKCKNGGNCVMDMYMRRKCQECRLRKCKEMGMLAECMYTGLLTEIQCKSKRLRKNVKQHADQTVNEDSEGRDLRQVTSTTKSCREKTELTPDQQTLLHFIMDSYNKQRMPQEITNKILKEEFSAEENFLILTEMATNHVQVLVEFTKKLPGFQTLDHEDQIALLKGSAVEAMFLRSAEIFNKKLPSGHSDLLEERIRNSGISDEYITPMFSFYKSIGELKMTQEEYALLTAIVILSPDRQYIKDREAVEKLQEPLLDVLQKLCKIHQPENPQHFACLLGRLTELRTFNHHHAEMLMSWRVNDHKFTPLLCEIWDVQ
Assay: cell-based FXR transcription assay, FXR responsive promoter linked to luciferase reporter
Details: cell-based FXR reporter assay; footnote a not given
One threshold, 0.5, splits the recorded RE^a values: lower ones are yes, equal or higher ones are no.

RE^a strictly < 0.5 for this compound? "CC(C)(C)OC(=O)/C=C/c1cccc(N(Cc2ccc(CCC(=O)OC(C)(C)C)cc2)C(=O)C2CCCCC2)c1"
no

RE^a strictly < 0.5 for this compound? "COC(=O)/C=C/c1cccc(N(Cc2ccc(-c3cccc(C)c3)cc2)C(=O)C(C)C)c1"
no

RE^a strictly < 0.5 for this compound? "COC(=O)/C=C/c1cccc(N(Cc2ccc(-c3ccccc3OC)cc2)C(=O)NC(C)C)c1"
yes

RE^a strictly < 0.5 for this compound? "COC(=O)C=Cc1cccc(N(Cc2ccc(-c3ccc(C)s3)cc2)C(=O)C2CCCCC2)c1"
no

RE^a strictly < 0.5 for this compound? "COC(=O)/C=C/c1cccc(N(Cc2ccc(-c3ccc(OC)cc3)cc2)C(=O)C2CCCCC2)c1"
no

RE^a strictly < 0.5 for this compound? "CCOCC=Cc1cccc(N(Cc2ccc(C=CC(=O)OC(C)(C)C)cc2)C(=O)C2CCCCC2)c1"
no

RE^a strictly < 0.5 for this compound? "COC(=O)/C=C/c1cccc(N(Cc2ccc(/C=C/c3c(C)cc(C)cc3C)cc2)C(=O)C(C)C)c1"
yes

RE^a strictly < 0.5 for this compound? "COC(=O)C=Cc1cccc(N(Cc2cccc(Br)c2)C(=O)C2CCCCC2)c1"
yes

RE^a strictly < 0.5 for this compound? "COC(=O)C=Cc1cccc(N(Cc2ccc(C=CC(=O)NC(C)(C)C)cc2)C(=O)C2CCCCC2)c1"
no

RE^a strictly < 0.5 for this compound? "COC(=O)/C=C/c1cccc(N(Cc2ccc(-c3ccc(F)c(Cl)c3)cc2)C(=O)NC(C)C)c1"
yes

RE^a strictly < 0.5 for this compound? "COC(=O)C=Cc1cccc(N(Cc2ccc(C=Cc3scnc3C)cc2)C(=O)C2CCCCC2)c1"
no

RE^a strictly < 0.5 for this compound? "COC(=O)/C=C/c1cccc(N(Cc2cccc(OC)c2)C(=O)C2CCCCC2)c1"
yes

RE^a strictly < 0.5 for this compound? "COC(=O)C=Cc1cccc(N(Cc2ccc(CCC(=O)OC(C)(C)C)cc2)C(=O)C2CCCCC2)c1"
no

RE^a strictly < 0.5 for this compound? "COC(=O)/C=C/c1cccc(N(Cc2ccc(-c3ccc(SC)cc3)cc2)C(=O)C2CCCCC2)c1"
no

RE^a strictly < 0.5 for this compound? "COC(=O)/C=C/c1cccc(N(Cc2ccc(-c3ccccc3)cc2)C(=O)C2CCCCC2)c1"
no
